systemName: GST-Aq-NF-kB (Amphimedon queenslandica, UniProt A9Y5G7 2-389)
Sequence: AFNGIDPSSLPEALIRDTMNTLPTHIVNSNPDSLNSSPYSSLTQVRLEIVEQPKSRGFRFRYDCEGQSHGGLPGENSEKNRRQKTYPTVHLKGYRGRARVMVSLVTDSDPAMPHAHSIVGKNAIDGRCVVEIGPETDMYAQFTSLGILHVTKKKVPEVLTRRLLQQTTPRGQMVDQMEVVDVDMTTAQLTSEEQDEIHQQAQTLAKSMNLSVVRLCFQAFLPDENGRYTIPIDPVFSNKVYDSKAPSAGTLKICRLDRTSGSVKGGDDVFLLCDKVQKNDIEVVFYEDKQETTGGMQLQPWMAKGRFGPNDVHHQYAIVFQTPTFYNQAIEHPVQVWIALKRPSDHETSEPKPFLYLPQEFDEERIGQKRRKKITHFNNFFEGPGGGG
protocolSummary: protein-binding microarray (PBM); PBM: ~300 nM protein, 6 mM HEPES pH 7.8, 80 mM KCl, 0.5 mM EDTA, 0.5 mM EGTA, 6% glycerol, 35 ng/ul poly-dIdC, 1% milk, 1 h, room temperature; Ap Aiptasia and Nv Nematostella (sea anemones) / Co Capsaspora / Aq Amphimedon (sponge) / Dm Drosophila / Hu human; RHD is the Rel homology domain; high values mean tight binding
protocolConditions: dsDNA, one strand shown
So I've got a bunch of sequences here, and I need their binding signal values.
Numbers only, in z-score.

| constructSequence | binding signal (z-score) |
| --- | --- |
| CCGATTAACATCAAAATCCCGGGTGATGTTAATCGGGTCTTGATTCGCTTGACGCTGCTG | 3.23 |

Please look at the items below and tell me binding signal for each one, in order.
1. CCGATTAACATCAGATCTCCCCCTGATGTTAATCGGGTCTTGATTCGCTTGACGCTGCTG
2. CCGATTAACATCAAAAATCCCCGTGATGTTAATCGGGTCTTGATTCGCTTGACGCTGCTG
3. CCGATTAACATCAGGGGATTGTATGATGTTAATCGGGTCTTGATTCGCTTGACGCTGCTG
4. CCGATTAACATCAGGGGGAAGTATGATGTTAATCGGGTCTTGATTCGCTTGACGCTGCTG
5. CCGATTAACATCAGGGGGACTAATGATGTTAATCGGGTCTTGATTCGCTTGACGCTGCTG
6. CCGATTAACATCAGGAAAATTCCTGATGTTAATCGGGTCTTGATTCGCTTGACGCTGCTG
7. CCGATTAACATCAGGGGAGTTAATGATGTTAATCGGGTCTTGATTCGCTTGACGCTGCTG

Out:
4.88
8.1
5.12
5.16
4.27
2.45
3.63
